Data provenance: ChEMBL document CHEMBL1143152

Cmax values, listed per item
Assay: Cmax in dog at 0.5 mg/kg, iv and 1.0 mg/kg, po
Assay type: ADME, organism-based, Canis lupus familiaris
Settings: in vivo
Give a bare numeral; the unit µM is implied.

                                   compound  assay_value
0  Cn1cc(-c2ccc(O)cc2)cc(NC(=O)N2CCC(n3c(=O)[nH]c4ncccc43)CC2)c1=O          0.6
1  Cn1cc(C2C=CN=N2)cc(NC(=O)N2CCC(n3c(=O)[nH]c4ncccc43)CC2)c1=O (stereo not given)          0.3
2  O=C(Nc1cc(-c2cccc(F)c2F)cn(CC(F)(F)F)c1=O)N1CCC(n2c(=O)[nH]c3ncccc32)CC1          9.4

For record O=C(Nc1cc(-c2ccccc2)cn(CC(F)(F)F)c1=O)N1CCC(n2c(=O)[nH]c3ncccc32)CC1 the listed Cmax is 10.3

For record O=C(Nc1cc(-c2cccnc2)cn(CC(F)(F)F)c1=O)N1CCC(n2c(=O)[nH]c3ncccc32)CC1 the listed Cmax is 7.4

====

Experiment: Clearance in dog at 0.5 mg/kg, iv and 1.0 mg/kg, po
Type: ADME, organism-based, Canis lupus familiaris
Settings: in vivo
Outcome measure: clearance (mL/min/kg)
Give a bare numeral; the unit mL/min/kg is implied.

For record O=C(Nc1cc(-c2ccccc2)cn(CC(F)(F)F)c1=O)N1CCC(n2c(=O)[nH]c3ncccc32)CC1 the listed clearance is 0.2

For record Cn1cc(C2C=CN=N2)cc(NC(=O)N2CCC(n3c(=O)[nH]c4ncccc43)CC2)c1=O (stereo not given) the listed clearance is 2.8

====

Biological target: Calcitonin gene-related peptide type 1 receptor (Homo sapiens, UniProt O60894+Q16602)
Sequence (Q16602 whole entry, one chain of several): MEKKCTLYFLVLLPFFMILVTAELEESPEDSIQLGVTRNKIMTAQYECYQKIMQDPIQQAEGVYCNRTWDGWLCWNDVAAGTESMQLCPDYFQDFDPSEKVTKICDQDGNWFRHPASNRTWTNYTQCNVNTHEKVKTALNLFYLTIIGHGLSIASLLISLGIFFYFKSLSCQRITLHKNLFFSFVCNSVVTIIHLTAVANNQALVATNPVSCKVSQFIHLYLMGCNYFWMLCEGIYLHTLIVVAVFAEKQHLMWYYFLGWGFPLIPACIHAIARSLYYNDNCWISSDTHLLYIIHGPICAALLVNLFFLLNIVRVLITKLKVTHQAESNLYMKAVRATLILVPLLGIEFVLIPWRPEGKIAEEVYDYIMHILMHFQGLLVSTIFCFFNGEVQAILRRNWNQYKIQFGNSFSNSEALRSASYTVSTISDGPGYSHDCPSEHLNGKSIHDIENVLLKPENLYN
Assay: Antagonist activity at human recombinant CL receptor /RAMP1 assessed as inhibition of cAMP accumulation in presence of 50% human serum by cell based assay
Type: functional
IC50 strictly under 1 µM means Satisfied; at 1 µM or over means Not satisfied.

Some entries whose results are on file:
>>> print(df.to_string())
                                   molecule  assigned_label
0  COCCn1cc(-c2ccc(O)cc2)cc(NC(=O)N2CCC(n3c(=O)[nH]c4ncccc43)CC2)c1=O       Satisfied
1  Cn1cc(-c2cccc(O)c2)cc(NC(=O)N2CCC(n3c(=O)[nH]c4ncccc43)CC2)c1=O       Satisfied
2  Cn1cc(C2C=CN=N2)cc(NC(=O)N2CCC(n3c(=O)[nH]c4ncccc43)CC2)c1=O (stereo not given)       Satisfied

Please examine the following record next.
I wonder whether O=C(Nc1cc(-c2ccn[nH]2)cn(CC(F)(F)F)c1=O)N1CCC(n2c(=O)[nH]c3ncccc32)CC1 has IC50 below 1 µM. Can you tell?
Not satisfied

====

Experiment: Clearance in dog at 0.5 mg/kg, iv and 1.0 mg/kg, po
Format: ADME, organism-based, Canis lupus familiaris
Settings: in vivo
Outcome measure: clearance

# count of solved cases: 2
>>> df
                    structure_smiles_string    assay_value
0  O=C(Nc1cc(-c2cccnc2)cn(CC(F)(F)F)c1=O)N1CCC(n2c(=O)[nH]c3ncccc32)CC1  0.3 mL/min/kg
1  O=C(Nc1cc(-c2cccc(F)c2F)cn(CC(F)(F)F)c1=O)N1CCC(n2c(=O)[nH]c3ncccc32)CC1  0.2 mL/min/kg

Next item in the queue.
For record Cn1cc(-c2ccc(O)cc2)cc(NC(=O)N2CCC(n3c(=O)[nH]c4ncccc43)CC2)c1=O the listed clearance is 0.6 mL/min/kg
